This collection of values is drawn from patent US7763615B2.

Property: Human Liver S9 Metabolic Stability (% remaining); scope: individual molecules
# condition: s9, 60 min, 1 μM
Use % remaining as the unit, but write only the number.

molecule	measurementUnits	reading
COc1c(C)cc2c(c1O)[C@@H]1C3[C@@H]4SC[C@]5(NC(C)Cc6c5[nH]c5ccccc65)C(=O)COC[C@@H](c5c6c(c(C)c(OC(C)=O)c54)OCO6)N3[C@@H](O)[C@H](C2)N1C (stereo partly shown) [Compound 44]	% remaining	4
COc1c(C)cc2c(c1O)[C@@H]1C3[C@@H]4SC[C@]5(NCCc6c5[nH]c5ccc(OCc7ccccc7)cc65)C(=O)COC[C@@H](c5c6c(c(C)c(OC(C)=O)c54)OCO6)N3[C@@H](O)[C@H](C2)N1C (stereo partly shown)	% remaining	9

Lookup: State the recorded Human Liver S9 Metabolic Stability (% remaining) for this entry: COc1c(C)cc2c(c1OC(=O)OC(C)(C)C)[C@@H]1C3[C@@H]4SC[C@]5(NCCc6c5[nH]c5ccccc65)C(=O)COC[C@@H](c5c6c(c(C)c(OC(C)=O)c54)OCO6)N3[C@@H](O)[C@H](C2)N1C (stereo partly shown)
Found: 7

Lookup: Try COc1c(C)cc2c(c1O)[C@@H]1C3[C@@H]4SC[C@]5(NC(C)Cc6c5[nH]c5ccccc65)C(=O)COC[C@@H](c5c6c(c(C)c(OC(C)=O)c54)OCO6)N3[C@@H](O)[C@H](C2)N1C (stereo partly shown) [Compound 43] next.
Found: 3

* * *

# Test system: L8, normal rat skeletal muscle cells
# condition: 24 h
Property: Skeletal; scope: individual compounds
No unit in the answer, please; the number alone is enough.

As a guide, the following entries are already answered.
compound	measuredParameter	reading
COc1c(C)cc2c(c1O)[C@@H]1C3[C@@H]4SC[C@]5(NC(C)Cc6c5[nH]c5ccc(F)cc65)C(=O)COC[C@@H](c5c6c(c(C)c(OC(C)=O)c54)OCO6)N3[C@@H](O)[C@H](C2)N1C (stereo partly drawn) [Compound 42]	Skeletal	3.37E−08
COc1c(C)cc2c(c1OC(=O)OC(C)(C)C)[C@@H]1C3[C@@H]4SC[C@]5(NCCc6c5[nH]c5ccccc65)C(=O)COC[C@@H](c5c6c(c(C)c(OC(C)=O)c54)OCO6)N3[C@@H](O)[C@H](C2)N1C (stereo partly drawn)	Skeletal	2.16E−07

Lookup: State the recorded Skeletal for this entry: COc1c(C)cc2c(c1O)[C@@H]1C3[C@@H]4SC[C@]5(C(=O)COC[C@@H](c6c7c(c(C)c(OC(C)=O)c64)OCO7)N3[C@@H](O)[C@H](C2)N1C)c1[nH]c2ccc(O)cc2c1CCN5C (stereo partly drawn)
Found: 1.41E−08

* * *

Property: Myelo; scope: individual molecules
# Test system: FDC-P1, normal mouse myelogeous stem cells
# condition: 24 h
No unit in the answer, please; the number alone is enough.

molecule	Myelo
COc1c(C)cc2c(c1O)[C@@H]1C3[C@@H]4SC[C@]5(NCCc6c5[nH]c5ccc(O)cc65)C(=O)COC[C@@H](c5c6c(c(C)c(OC(C)=O)c54)OCO6)N3[C@@H](O)[C@H](C2)N1C (some centres unmarked)	3.18E−08

Lookup: State the recorded Myelo for this entry: COc1c(C)cc2c(c1O)[C@@H]1C3[C@@H]4SC[C@]5(NCCc6c5[nH]c5ccc(OCc7ccccc7)cc65)C(=O)COC[C@@H](c5c6c(c(C)c(OC(C)=O)c54)OCO6)N3[C@@H](O)[C@H](C2)N1C (some centres unmarked)
Found: 1.79E−08

* * *

# Test system: HT29
# methodDescription: cells
# Assay type: cell-based
# condition: Homo sapiens, HT-29, 48 h, HT29, 48 hours exposure, SRB
Property: log10 of IC (TGI); scope: individual molecules
Values below are the log10 of the recorded IC (TGI), with nM as the unit.

molecule	systemTested	measuredParameter	reading
COc1c(C)cc2c(c1O)[C@@H]1C3[C@@H]4SC[C@]5(C(=O)COC[C@@H](c6c7c(c(C)c(OC(C)=O)c64)OCO7)N3[C@@H](O)[C@H](C2)N1C)c1[nH]c2ccc(O)cc2c1CCN5C (stereo partly drawn)	HT29	log10 of IC (TGI)	-0.12
COc1c(C)cc2c(c1O)[C@@H]1C3[C@@H]4SC[C@]5(NCCc6c5[nH]c5ccccc65)C(=O)COC[C@@H](c5c6c(c(C)c(OC(=O)C(F)(F)F)c54)OCO6)N3[C@@H](C#N)[C@H](C2)N1C (stereo partly drawn)	HT29	log10 of IC (TGI)	4.09
C=COC(=O)Oc1c(C)c2c(c3c1[C@H]1SC[C@]4(NCCc5c4[nH]c4ccccc54)C(=O)COC[C@@H]3N3C1[C@H]1c4c(cc(C)c(OC)c4O)C[C@@H]([C@@H]3C#N)N1C)OCO2 (stereo partly drawn)	HT29	log10 of IC (TGI)	1.26

Lookup: State the recorded log10 of IC (TGI) for this entry: COc1c(C)cc2c(c1O)[C@@H]1C3[C@@H]4SC[C@]5(NC(C)Cc6c5[nH]c5ccccc65)C(=O)COC[C@@H](c5c6c(c(C)c(OC(C)=O)c54)OCO6)N3[C@@H](C#N)[C@H](C2)N1C (stereo partly drawn)
Found: 2.11

Lookup: Try COc1c(C)cc2c(c1OC(=O)OC(C)(C)C)[C@@H]1C3[C@@H]4SC[C@]5(NCCc6c5[nH]c5ccccc65)C(=O)COC[C@@H](c5c6c(c(C)c(OC(C)=O)c54)OCO6)N3[C@@H](C#N)[C@H](C2)N1C (stereo partly drawn) next.
Found: 4.06

Lookup: Try COc1c(C)cc2c(c1O)[C@@H]1C3[C@@H]4SC[C@]5(NCCc6c5[nH]c5c(OCc7ccccc7)cccc65)C(=O)COC[C@@H](c5c6c(c(C)c(OC(C)=O)c54)OCO6)N3[C@@H](C#N)[C@H](C2)N1C (stereo partly drawn) next.
Found: 2.36

* * *

# Test system: SK-OV3
# methodDescription: Inhibition of cells growth by colorimetric assay (SRB), SK-OV3
# Assay type: cell-based
# condition: read-out: LC50; SK-OV3
measuredParameter: CC50 (nM)
Use nM as the unit, but write only the number.

Lookup: State the recorded CC50 for this entry: COc1c(C)cc2c(c1O)[C@@H]1C3[C@@H]4SC[C@]5(NC(C)Cc6c5[nH]c5ccccc65)C(=O)COC[C@@H](c5c6c(c(C)c(OC(C)=O)c54)OCO6)N3[C@@H](O)[C@H](C2)N1C (some centres unmarked) [Compound 43]
Found: 13

* * *

# Test system: LOVO-DOX
# methodDescription: cells
# Assay type: cell-based
# condition: read-out: LC50; LOVO-DOX, 48 hours exposure, SRB
measuredParameter: CC50 (µM)
Use µM as the unit, but write only the number.

Lookup: State the recorded CC50 for this entry: COc1c(C)cc2c(c1O)[C@@H]1C3[C@@H]4SC[C@]5(NC(C)Cc6c5[nH]c5ccc(F)cc65)C(=O)COC[C@@H](c5c6c(c(C)c(OC(C)=O)c54)OCO6)N3[C@@H](O)[C@H](C2)N1C (stereo partly shown) [Compound 42]
Found: 12.7

Lookup: Try COc1c(C)cc2c(c1O)[C@@H]1C3[C@@H]4SC[C@]5(NC(C)Cc6c5[nH]c5ccc(O)cc65)C(=O)COC[C@@H](c5c6c(c(C)c(OC(C)=O)c54)OCO6)N3[C@@H](O)[C@H](C2)N1C (stereo partly shown) [Compound 38] next.
Found: 12.7

Lookup: Try COc1c(C)cc2c(c1O)[C@@H]1C3[C@@H]4SC[C@]5(C(=O)COC[C@@H](c6c7c(c(C)c(OC(C)=O)c64)OCO7)N3[C@@H](O)[C@H](C2)N1C)c1[nH]c2ccccc2c1CCN5C (stereo partly shown) [Compound 40] next.
Found: 0.551

Lookup: Try COc1c(C)cc2c(c1O)[C@@H]1C3[C@@H]4SC[C@]5(C(=O)COC[C@@H](c6c7c(c(C)c(OC(C)=O)c64)OCO7)N3[C@@H](O)[C@H](C2)N1C)c1[nH]c2ccccc2c1CCN5C (stereo partly shown) [Compound 39] next.
Found: 13

* * *

# System: AML-12, normal mouse liver cells
# condition: 24 h
measuredParameter: Liver
No unit in the answer, please; the number alone is enough.

compound	measuredParameter	reading
COc1c(C)cc2c(c1O)[C@@H]1C3[C@@H]4SC[C@]5(NC(C)Cc6c5[nH]c5ccccc65)C(=O)COC[C@@H](c5c6c(c(C)c(OC(C)=O)c54)OCO6)N3[C@@H](O)[C@H](C2)N1C (stereo partly drawn) [Compound 44]	Liver	4.33E−07

Lookup: State the recorded Liver for this entry: COc1c(C)cc2c(c1O)[C@@H]1C3[C@@H]4SC[C@]5(NCCc6c5[nH]c5c(C)cccc65)C(=O)COC[C@@H](c5c6c(c(C)c(OC(C)=O)c54)OCO6)N3[C@@H](O)[C@H](C2)N1C (stereo partly drawn) [Compound 36]
Found: 3.19E−07

Lookup: Try COc1c(C)cc2c(c1O)[C@@H]1C3[C@@H]4SC[C@]5(NC(C)Cc6c5[nH]c5ccc(O)cc65)C(=O)COC[C@@H](c5c6c(c(C)c(OC(C)=O)c54)OCO6)N3[C@@H](O)[C@H](C2)N1C (stereo partly drawn) [Compound 37] next.
Found: 5.46E−09

Lookup: Try C=COC(=O)Oc1c(OC)c(C)cc2c1[C@@H]1C3[C@@H]4SC[C@]5(NCCc6c5[nH]c5ccccc65)C(=O)COC[C@@H](c5c6c(c(C)c(OC(C)=O)c54)OCO6)N3[C@@H](O)[C@H](C2)N1C (stereo partly drawn) [Compound 47] next.
Found: 3.04E−08

Lookup: Try COc1c(C)cc2c(c1OC(=O)OC(C)(C)C)[C@@H]1C3[C@@H]4SC[C@]5(NCCc6c5[nH]c5ccccc65)C(=O)COC[C@@H](c5c6c(c(C)c(OC(C)=O)c54)OCO6)N3[C@@H](O)[C@H](C2)N1C (stereo partly drawn) [Compound 46] next.
Found: 5.01E−08

Lookup: Try COc1c(C)cc2c(c1O)[C@@H]1C3[C@@H]4SC[C@]5(NCCc6c5[nH]c5c(OCc7ccccc7)cccc65)C(=O)COC[C@@H](c5c6c(c(C)c(OC(C)=O)c54)OCO6)N3[C@@H](O)[C@H](C2)N1C (stereo partly drawn) [Compound 28] next.
Found: 1.42E−07

Lookup: Try COc1c(C)cc2c(c1O)[C@@H]1C3[C@@H]4SC[C@]5(NC(C)Cc6c5[nH]c5ccc(O)cc65)C(=O)COC[C@@H](c5c6c(c(C)c(OC(C)=O)c54)OCO6)N3[C@@H](O)[C@H](C2)N1C (stereo partly drawn) [Compound 38] next.
Found: 1.39E−10
